Hey, just so you know, these numbers are from PubChem BioAssay AID2060625.

# System: 186277-243-T-J2-PDC spheroids with HUVEC/MSC, viability
# testDetails: Anticancer human tumor 186277-243-T-J2-PDC patient-derived colon adenocarcinoma cell line growth inhibition [CLK]
# experimentalContext: second compound 0.316 µM; first compound 0.0316 µM; stronger effect = lower value
In this scheme, each record receives a class according to its viability, T/C; the ranges are lower range = under 20%, middle range = from 20% up to 40%, upper range = 40% and over

{"molecule": "COc1c(OCCCN2CCOCC2)ccc2c3n(c(=NC(=O)c4cnc(N)nc4)nc12)CCN3 + CN1CCN(c2cc(C(=O)Nc3cc4cc(-c5cnn(C)c5)ccc4cn3)ccn2)CC1", "label": "lower range"}
{"molecule": "Nc1ccccc1NC(=O)c1ccc(CNC(=O)OCc2cccnc2)cc1 + CNC(=O)c1ccc(Nc2nc(OC3CCCC3)c3c(-c4ccc5nc(C)oc5c4)c[nH]c3n2)c(OC)c1", "label": "upper range"}
{"molecule": "CCc1c2c(nc3ccc(O)cc13)-c1cc3c(c(=O)n1C2)COC(=O)[C@]3(O)CC + CN1CCN(c2cc(C(=O)Nc3cc4cc(-c5cnn(C)c5)ccc4cn3)ccn2)CC1", "label": "lower range"}
{"molecule": "Nc1ccn(C2OC(CO)C(O)C2(F)F)c(=O)n1 (stereo not given) + CNC(=O)c1ccc(Nc2nc(OC3CCCC3)c3c(-c4ccc5nc(C)oc5c4)c[nH]c3n2)c(OC)c1", "label": "lower range"}
{"molecule": "CCN1CCN(Cc2ccc(Nc3ncc(F)c(-c4cc(F)c5nc(C)n(C(C)C)c5c4)n3)nc2)CC1 + CN1CCN(c2cc(C(=O)Nc3cc4cc(-c5cnn(C)c5)ccc4cn3)ccn2)CC1", "label": "middle range"}
{"molecule": "CCCS(=O)(=O)Nc1ccc(F)c(C(=O)c2c[nH]c3ncc(-c4ccc(Cl)cc4)cc23)c1F + CNC(=O)c1ccc(Nc2nc(OC3CCCC3)c3c(-c4ccc5nc(C)oc5c4)c[nH]c3n2)c(OC)c1", "label": "upper range"}
{"molecule": "CC1COCCN1c1cc(C2(S(C)(=N)=O)CC2)nc(-c2ccnc3[nH]ccc23)n1 (stereo not given) + CNC(=O)c1ccc(Nc2nc(OC3CCCC3)c3c(-c4ccc5nc(C)oc5c4)c[nH]c3n2)c(OC)c1", "label": "upper range"}
{"molecule": "CC(=O)O[C@H]1C(=O)[C@@]2(C)[C@H]([C@H](OC(=O)c3ccccc3)[C@]3(O)C[C@H](OC(=O)[C@H](O)[C@@H](NC(=O)c4ccccc4)c4ccccc4)C(C)=C1C3(C)C)[C@]1(OC(C)=O)CO[C@@H]1C[C@@H]2O + CN1CCN(c2cc(C(=O)Nc3cc4cc(-c5cnn(C)c5)ccc4cn3)ccn2)CC1", "label": "lower range"}
{"molecule": "CC1COCCN1c1cc(C2(S(C)(=N)=O)CC2)nc(-c2ccnc3[nH]ccc23)n1 (stereo not given) + CN1CCN(c2cc(C(=O)Nc3cc4cc(-c5cnn(C)c5)ccc4cn3)ccn2)CC1", "label": "middle range"}
{"molecule": "COc1ccc([C@@H](O)c2cc(-c3ncnc4cc(N5CCOCC5)ccc34)c(F)cc2Cl)nn1 + CNC(=O)c1ccc(Nc2nc(OC3CCCC3)c3c(-c4ccc5nc(C)oc5c4)c[nH]c3n2)c(OC)c1", "label": "middle range"}
{"molecule": "C#Cc1c(F)ccc2cc(O)cc(-c3ncc4c(N5CC6CCC(C5)N6)nc(OCC56CCCN5CC(F)C6)nc4c3F)c12 (stereo not given) + CN1CCN(c2cc(C(=O)Nc3cc4cc(-c5cnn(C)c5)ccc4cn3)ccn2)CC1", "label": "lower range"}
{"molecule": "O=c1[nH]cc(F)c(=O)[nH]1 + CNC(=O)c1ccc(Nc2nc(OC3CCCC3)c3c(-c4ccc5nc(C)oc5c4)c[nH]c3n2)c(OC)c1", "label": "upper range"}
{"molecule": "Cn1ncnc1[C@H]1c2n[nH]c(=O)c3cc(F)cc(c23)N[C@@H]1c1ccc(F)cc1 + CNC(=O)c1ccc(Nc2nc(OC3CCCC3)c3c(-c4ccc5nc(C)oc5c4)c[nH]c3n2)c(OC)c1", "label": "upper range"}
{"molecule": "C=CC(=O)N1CCN(c2nc(=O)n(-c3c(C)ccnc3C(C)C)c3nc(-c4c(O)cccc4F)c(F)cc23)C(C)C1 (stereo not given) + CNC(=O)c1ccc(Nc2nc(OC3CCCC3)c3c(-c4ccc5nc(C)oc5c4)c[nH]c3n2)c(OC)c1", "label": "upper range"}
{"molecule": "COc1c(OCCCN2CCOCC2)ccc2c3n(c(=NC(=O)c4cnc(N)nc4)nc12)CCN3 + CNC(=O)c1ccc(Nc2nc(OC3CCCC3)c3c(-c4ccc5nc(C)oc5c4)c[nH]c3n2)c(OC)c1", "label": "lower range"}
{"molecule": "C=CC(=O)N1CCN(c2nc(=O)n(-c3c(C)ccnc3C(C)C)c3nc(-c4c(O)cccc4F)c(F)cc23)C(C)C1 (stereo not given) + CN1CCN(c2cc(C(=O)Nc3cc4cc(-c5cnn(C)c5)ccc4cn3)ccn2)CC1", "label": "middle range"}
{"molecule": "CC1(C)CCC(CN2CCN(c3ccc(C(=O)NS(=O)(=O)c4ccc(NCC5CCOCC5)c([N+](=O)[O-])c4)c(Oc4cnc5[nH]ccc5c4)c3)CC2)=C(c2ccc(Cl)cc2)C1 + CN1CCN(c2cc(C(=O)Nc3cc4cc(-c5cnn(C)c5)ccc4cn3)ccn2)CC1", "label": "middle range"}
{"molecule": "CC1(C)CCC(CN2CCN(c3ccc(C(=O)NS(=O)(=O)c4ccc(NCC5CCOCC5)c([N+](=O)[O-])c4)c(Oc4cnc5[nH]ccc5c4)c3)CC2)=C(c2ccc(Cl)cc2)C1 + CNC(=O)c1ccc(Nc2nc(OC3CCCC3)c3c(-c4ccc5nc(C)oc5c4)c[nH]c3n2)c(OC)c1", "label": "upper range"}
{"molecule": "Nc1ccccc1NC(=O)c1ccc(CNC(=O)OCc2cccnc2)cc1 + CN1CCN(c2cc(C(=O)Nc3cc4cc(-c5cnn(C)c5)ccc4cn3)ccn2)CC1", "label": "middle range"}
{"molecule": "CC(CO)NC(=O)c1cc(-c2ccc(Cl)cc2)nn(-c2cnn(C)c2)c1=O (stereo not given) + CN1CCN(c2cc(C(=O)Nc3cc4cc(-c5cnn(C)c5)ccc4cn3)ccn2)CC1", "label": "middle range"}

---

# System: 186277-243-T-J2-PDC spheroids with HUVEC/MSC, viability
# testDetails: Anticancer human tumor 186277-243-T-J2-PDC cell line growth inhibition [CLK];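 also: compound exposure lasted seven days before readout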;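 as to viability, T/C: 100% = DMSO vehicle control wells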
# experimentalContext: second compound 3.16 µM; first compound 0.003 µM; stronger effect = lower value
Overview of reported viability, T/C across a group of compounds:

{"compound": "CC(C)CC(NC(=O)C(Cc1ccccc1)NC(=O)c1cnccn1)B(O)O (centres undefined) + CNC(=O)c1ccc(Nc2nc(OC3CCCC3)c3c(-c4ccc5nc(C)oc5c4)c[nH]c3n2)c(OC)c1", "viability, T/C": "2.4%"}
{"compound": "CC(C)CC(NC(=O)C(Cc1ccccc1)NC(=O)c1cnccn1)B(O)O (centres undefined) + CN1CCN(c2cc(C(=O)Nc3cc4cc(-c5cnn(C)c5)ccc4cn3)ccn2)CC1", "viability, T/C": "0.72%"}
{"compound": "C=CC(=O)Nc1cc(Nc2nccc(-c3cn(C)c4ccccc34)n2)c(OC)cc1N(C)CCN(C)C + CNC(=O)c1ccc(Nc2nc(OC3CCCC3)c3c(-c4ccc5nc(C)oc5c4)c[nH]c3n2)c(OC)c1", "viability, T/C": "33.5%"}
{"compound": "C=CC(=O)Nc1cc(Nc2nccc(-c3cn(C)c4ccccc34)n2)c(OC)cc1N(C)CCN(C)C + CN1CCN(c2cc(C(=O)Nc3cc4cc(-c5cnn(C)c5)ccc4cn3)ccn2)CC1", "viability, T/C": "1.27%"}

---

Overview of reported IC50 across a group of compounds:
# Test system: 186277-243-T-J2-PDC spheroids with HUVEC/MSC, viability
# testDetails: Anticancer human tumor 186277-243-T-J2-PDC cell line growth inhibition [CLK];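 also: compound exposure lasted seven days before readout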
# experimentalContext: curve of first compound; second compound 0.316 µM
readoutName: IC50 (nM)

{"compound": "Nc1ccccc1NC(=O)c1ccc(CNC(=O)OCc2cccnc2)cc1 + CNC(=O)c1ccc(Nc2nc(OC3CCCC3)c3c(-c4ccc5nc(C)oc5c4)c[nH]c3n2)c(OC)c1", "targetOrSystem": "186277-243-T-J2-PDC spheroids with HUVEC/MSC, viability", "relation": "=", "observedResult": 1510}
{"compound": "CC(C)CC(NC(=O)C(Cc1ccccc1)NC(=O)c1cnccn1)B(O)O (stereo not drawn) + CNC(=O)c1ccc(Nc2nc(OC3CCCC3)c3c(-c4ccc5nc(C)oc5c4)c[nH]c3n2)c(OC)c1", "targetOrSystem": "186277-243-T-J2-PDC spheroids with HUVEC/MSC, viability", "relation": "=", "observedResult": 1.03}
{"compound": "NC(=O)C(=Cn1cnc(-c2cc(C(F)(F)F)cc(C(F)(F)F)c2)n1)c1cncnc1 + CN1CCN(c2cc(C(=O)Nc3cc4cc(-c5cnn(C)c5)ccc4cn3)ccn2)CC1", "targetOrSystem": "186277-243-T-J2-PDC spheroids with HUVEC/MSC, viability", "relation": "<", "observedResult": 9.49}
